# target: Sialic acid-binding Ig-like lectin 9 (Homo sapiens)
# experimentDescription: Hs-Siglec9 ALPHAscreen SOP 20170721
# Parameters: scale not given: direction of the effect not stated beside the values
# conditionDetails: 10 µM
propertyName: Percent Effect (%)
Provide only the numeric value, understood in %.

Reference set (2 entries):
COCC(=O)NCc1cccc(Br)c1 :: -7.74
COCCN1C(=O)[C@]2(CC[C@@H]3CN(C(=O)NC4CCCC4)C[C@@H]32)N=C1C :: 5.66

Return reported Percent Effect; argument: `CCOc1cccc(CNc2ccccc2C(=O)OC)c1O`
-4.44

// same read-out, input: Cn1cc(CN2CCC(F)(F)C3(CCN(c4cnccn4)C3)C2)cn1 (configuration not stated)
-1.14

* * *

# target: Proteasome subunit beta (Trypanosoma cruzi)
# experimentDescription: Trypanosoma cruzi proteasome chymotrypsin-like activity (TcProtChymo) assay. Also: in the data most compounds retested in dose-response had high values.
# Format: functional
# Set-up: scale not given: direction of the effect not stated beside the values
# conditionDetails: 9.37 µM
Reported Percent Effect by item:
Provide only the numeric value, understood in %.

Reference set (2 entries):
CSCC[C@H](N)C(=O)NCc1cc2n(n1)CCCN(C(=O)C1CCC1)C2 :: 10.5
Cn1cc(CN2C[C@@H]3COC[C@]3(C(=O)NCc3ccccn3)C2)cn1 :: 4.62

Return reported Percent Effect; argument: `O=C(COc1cccc2c1CCC2=O)NCCOc1ccccc1`
9.68

// same read-out, input: CC1CCCN(Cc2c(C3CCOCC3)[nH]c3ncccc23)C1 (configuration not stated)
14.3

// same read-out, input: COCc1nc(CN2CCC3(CCCO3)CCC2=O)no1 (configuration not stated)
12

// same read-out, input: `CS(=O)(=O)NCCCNC(=O)c1cccnc1O`
16.6

// same read-out, input: `Cc1ncc(-c2nc3cc(S(=O)(=O)N4CCCC4)ccc3n2C)cn1`
2.13

// same read-out, input: CC(C)=CCN1CCOC(Cn2nc(C)cc2C)C1 (configuration not stated)
16.7

// same read-out, input: COCCc1noc(CNC2CCCN(c3cccnn3)C2)n1 (configuration not stated)
19.3

// same read-out, input: `COCCN1CCN(C(=O)c2cc(C(C)C)on2)[C@H]2CS(=O)(=O)C[C@H]21`
17.2

// same read-out, input: CC(C)N1CC(C(=O)NCCOc2ccc3c(c2)OCO3)CC1=O (configuration not stated)
12.1

// same read-out, input: Cc1nc(CN2CCCC(N(C)Cc3nnsc3Cl)C2)no1 (configuration not stated)
2.99

* * *

# target: AMP-activated protein kinase, AMPK (Homo sapiens) (UniProt P54646+O43741+P54619+Q9UGJ0+Q9Y478+Q13131+Q9UGI9)
# experimentDescription: AMP-dependent Kinase enzyme assay. An in vitro enzyme assay that detects ADP turnover that is directly proportional to AMPK activity. This uses naive AMPK that is activated during the assay with MK-8722
# Type: functional
# Design: scale not given: direction of the effect not stated beside the values
# conditionDetails: 30 µM
propertyName: Percent Effect (%)
Provide only the numeric value, understood in %.

Reference set (3 entries):
CCN1CCN(C(=O)c2cc(C(=O)OC)nn2-c2ccccc2)CC1 :: 3.57
Cc1cnn(CC2CN(CCc3ccncc3)CCO2)c1 (centres undefined) :: 0.214
Cc1n[nH]cc1CNc1ccc2c(c1)N(C(=O)OC(C)(C)C)CCC2 :: -1.81

Return reported Percent Effect; argument: `O=C(CCNCC(F)(F)F)N1CCC(Nc2cccnn2)CC1`
4.48

// same read-out, input: `c1cnn(Cc2nnc(C3CCN(C4CCOCC4)CC3)n2C2CC2)c1`
-7

// same read-out, input: `Cc1ccc(NC(=O)Nc2cnc(N3CCN(C)CC3)nc2)c(Cl)c1`
2.69

// same read-out, input: `O=C(CSC1=NS(=O)(=O)c2cc(F)ccc2N1)c1ccc(Cl)cc1`
2.41

// same read-out, input: Cc1nc(CN(C)C2CCCN(c3cccnn3)C2)no1 (centres undefined)
-7.88

// same read-out, input: `N#Cc1ncn(CCC(=O)Nc2c(Cl)cccc2Cl)n1`
-1.08

// same read-out, input: CCc1nc(C2CCCN(C(=O)c3cccc4c3ccn4C)C2)no1 (centres undefined)
1.08

// same read-out, input: `CC(C)CCN1CN=C(NS(=O)(=O)c2ccc(F)cc2)NC1`
4.23

// same read-out, input: CC(NC(=O)NCCN1CCCCCC1=O)c1nncn1C (centres undefined)
-10.1

// same read-out, input: `O=C(CCNC(=O)C1CCCC1)NCc1cccnc1-n1cncn1`
-2.4

// same read-out, input: `O=C(NCCN1CCOCC1)NCc1ncc(-c2ccccc2)o1`
-6.01

// same read-out, input: CC(NC(=O)N(C)Cc1ccc(Cl)s1)c1ccccn1 (centres undefined)
9.06

// same read-out, input: `O=C(O)[C@]12CCCN(Cc3ccccc3)C[C@H]1CN(c1ncccn1)C2`
7.47

// same read-out, input: Cc1cc(C)n(CC2CCCN2C(=O)c2cccc3[nH]ncc23)n1 (centres undefined)
-1.43

// same read-out, input: `O=C(c1ccsc1)N1CCc2c(CNc3ncccn3)n[nH]c2C1`
4.32

// same read-out, input: COc1ccccc1C(=O)NC(CC(=O)O)c1cccs1 (centres undefined)
0.385

// same read-out, input: COC(=O)C(NC(=O)C(C)C)c1cc(F)ccc1F (centres undefined)
3.19

// same read-out, input: `Cc1cc(S(=O)(=O)N2CCCc3cc(F)cc(F)c32)sc1C(=O)O`
2.83
